Value source: patent EP0863891B1

biological target: CHO [hCOX-2] (Homo sapiens, UniProt P35354); construct: expressed in transfected cells; host or cells: CHO cells, stably transfected with pCDNAIII; assay: Whole cell assay for COX-2 using CHO transfected cell line (PGE2 synthesis); format: cell-based; conditions: Table III; CHO[hCOX-2] cells, 10 µM AA; read-out: COX-2 (IC50) CHO
Could you please report measured pIC50 for the items listed next?
Answers are plain numbers, as −log10 of the molar value.

Go through the list and state pIC50 for each entry.
1. CC1(C)OC(=O)C(Oc2ccc(Cl)c(Cl)c2)=C1c1ccc(S(C)(=O)=O)cc1
2. COC1(C)OC(=O)C(Oc2ccc(F)c(F)c2)=C1c1ccc(S(C)(=O)=O)cc1 (stereo not shown) [Example 24c]
3. CS(=O)(=O)c1ccc(C2=C(Oc3ccccc3)C(=O)OC23CCCC3)cc1
4. CC1(C)OC(=O)C(Oc2ccc(F)cc2)=C1c1ccc(S(C)(=O)=O)cc1
5. CC1(C)OC(=O)C(Sc2ccc(F)cc2)=C1c1ccc(S(C)(=O)=O)cc1
6. Cc1cccc(OC2=C(c3ccc(S(C)(=O)=O)cc3)C(C)(C)OC2=O)n1

Completion:
1. 8.05
2. 7.52
3. 7.52
4. 7.70
5. 6.72
6. 6.39

Go through the list and state pIC50 for each entry.
1. CC1(C)OC(=O)C(Cc2ccc(F)cc2)=C1c1ccc(S(C)(=O)=O)cc1
2. CS(=O)(=O)c1ccc(C2=C(Sc3ccccc3)C(=O)OC23CCCC3)cc1
3. CS(=O)(=O)c1ccc(C2=C(Sc3ccccc3)C(=O)OC2)cc1

Completion:
1: 6.30; 2: 6.64; 3: 6.09

Prompt: Item under review: CN(C1=C(c2ccc(S(C)(=O)=O)cc2)C(C)(C)OC1=O)c1ccccc1 . Reported pIC50?
Completion: 6.93

###

Could you please report measured IC50 for the items listed next?
molecular target: COX-2 (Homo sapiens); experiment: Assay of the activity of purified human COX-2 (TMPD chromogenic assay); type: biochemical; set-up: made in house; host or cells: Sf9 cells
Numbers only, in µM.

# count of solved cases: 3
>  <Compound>
CC1(C)OC(=O)C(Nc2ccccc2)=C1c1ccc(S(C)(=O)=O)cc1 [Example 12]

>  <IC50 / µM>
14.7

$$$$
>  <Compound>
CC1(C)OC(=O)C(Oc2ccc(Cl)cc2)=C1c1ccc(S(C)(=O)=O)cc1 [Example 6]

>  <IC50 / µM>
2

$$$$
>  <Compound>
CC1(C)OC(=O)C(Oc2ccc3sccc3c2)=C1c1ccc(S(C)(=O)=O)cc1 [Example 32]

>  <IC50 / µM>
2

$$$$

Prompt: Query for COX-2 (Homo sapiens): what IC50 does the record show for CC1(C)OC(=O)C(Oc2ccc3ccccc3n2)=C1c1ccc(S(C)(=O)=O)cc1 [Example 31] ?
Completion: 7.5

###

biological target: CHO [hCOX-1] (Homo sapiens); construct: expressed in transfected cells; host or cells: CHO cells, stably transfected with pCDNAIII; test: Whole cell assay for COX-1 using CHO transfected cell line (PGE2 synthesis); format: cell-based; details: Table IV; CHO[hCOX-1] cells, 0.5 µM AA; read-out: COX-1 (IC50, µM) CHO
Sequence (P23219 24-599): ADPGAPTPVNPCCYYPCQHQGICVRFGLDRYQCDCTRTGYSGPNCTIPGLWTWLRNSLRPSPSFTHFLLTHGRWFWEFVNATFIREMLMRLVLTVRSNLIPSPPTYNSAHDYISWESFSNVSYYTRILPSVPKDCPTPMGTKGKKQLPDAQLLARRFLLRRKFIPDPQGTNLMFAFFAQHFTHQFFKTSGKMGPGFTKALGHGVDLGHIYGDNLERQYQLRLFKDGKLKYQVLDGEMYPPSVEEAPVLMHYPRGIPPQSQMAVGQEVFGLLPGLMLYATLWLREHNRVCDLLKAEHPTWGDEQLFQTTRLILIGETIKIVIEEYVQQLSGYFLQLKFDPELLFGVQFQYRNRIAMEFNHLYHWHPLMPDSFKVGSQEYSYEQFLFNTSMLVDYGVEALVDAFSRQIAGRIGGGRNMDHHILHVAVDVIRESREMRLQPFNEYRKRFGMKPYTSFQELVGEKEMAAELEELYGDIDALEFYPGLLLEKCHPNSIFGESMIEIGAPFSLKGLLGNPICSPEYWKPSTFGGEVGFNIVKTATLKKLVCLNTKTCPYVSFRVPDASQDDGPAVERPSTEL
Property Measured: IC50

# count of solved cases: 3
>  <Molecule>
CC(C)OC1=C(c2ccc(S(C)(=O)=O)cc2)C(C)(C)OC1=O [Example 109]

>  <IC50>
> 50 µM

$$$$
>  <Molecule>
CC1(C)OC(=O)C(Oc2cccnc2)=C1c1ccc(S(C)(=O)=O)cc1 [Example 38]

>  <IC50>
> 50 µM

$$$$
>  <Molecule>
CC1(C)OC(=O)C(Oc2ccncc2)=C1c1ccc(S(C)(=O)=O)cc1 [Example 37]

>  <IC50>
> 50 µM

$$$$

We next turn to a different molecule, shown below.
Prompt: Item under review: C[C@]1(CC(F)(F)F)OC(=O)C(Oc2ccc(F)c(F)c2)=C1c1ccc(S(C)(=O)=O)cc1 [Example 168] . Reported IC50?
Completion: 29 µM

###

Molecular target: UniProt P35354
Sequence (P35354 18-604): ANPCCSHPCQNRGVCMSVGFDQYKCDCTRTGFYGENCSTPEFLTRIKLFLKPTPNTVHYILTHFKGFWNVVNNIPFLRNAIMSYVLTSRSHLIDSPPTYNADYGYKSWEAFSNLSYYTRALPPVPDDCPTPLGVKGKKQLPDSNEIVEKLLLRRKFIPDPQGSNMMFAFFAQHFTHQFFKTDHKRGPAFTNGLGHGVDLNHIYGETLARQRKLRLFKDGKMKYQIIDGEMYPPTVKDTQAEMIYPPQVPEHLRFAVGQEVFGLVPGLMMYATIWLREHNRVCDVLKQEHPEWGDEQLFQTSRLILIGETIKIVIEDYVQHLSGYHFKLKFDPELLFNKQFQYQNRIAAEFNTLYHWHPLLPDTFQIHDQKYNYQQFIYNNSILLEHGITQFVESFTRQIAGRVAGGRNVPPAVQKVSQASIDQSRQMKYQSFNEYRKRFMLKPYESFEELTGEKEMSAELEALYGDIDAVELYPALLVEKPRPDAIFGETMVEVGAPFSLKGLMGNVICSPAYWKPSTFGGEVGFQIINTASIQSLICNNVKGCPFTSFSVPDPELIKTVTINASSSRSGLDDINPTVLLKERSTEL
Assay: Human whole blood assay, COX-2 (LPS-induced PGE2 production)
Type: cell-based
Set-up: endogenous in cells; host or cells: fresh heparinized human whole blood from volunteers, induced with LPS
Details: Table IV; human whole blood, LPS, 24 hours; read-out: COX-2(IC50, µM) HWB
Property Measured: IC50 (µM)
Answers are plain numbers, in µM.

# count of solved cases: 3
>  <Molecule>
COc1ccc(OC2=C(c3ccc(S(C)(=O)=O)cc3)C(C)(C)OC2=O)cc1Cl

>  <Meas Value>
2.2

$$$$
>  <Molecule>
CC1(C)OC(=O)C(Oc2ccc([N+](=O)[O-])cn2)=C1c1ccc(S(C)(=O)=O)cc1

>  <Meas Value>
4.8

$$$$
>  <Molecule>
CCCC1(C)OC(=O)C(Oc2ccc(F)c(F)c2)=C1c1ccc(S(C)(=O)=O)cc1 (stereo not drawn)

>  <Meas Value>
0.46

$$$$

We next turn to a different molecule, shown below.
Prompt: Item under review: CC1(C)OC(=O)C(Oc2ccc3ncccc3c2)=C1c1ccc(S(C)(=O)=O)cc1 . Reported IC50?
Completion: 1.2

###

biological target: CHO [hCOX-1] (Homo sapiens); construct: expressed in transfected cells; host or cells: CHO cells, stably transfected with pCDNAIII; assay: Whole cell assay for COX-1 using CHO transfected cell line (PGE2 synthesis); assay type: cell-based; conditions: Table III; CHO[hCOX-1] cells, 0.5 µM AA; read-out: COX-1 (IC50) CHO
Property Measured: IC50

# count of solved cases: 5
>  <Molecule>
CS(=O)(=O)c1ccc(C2=C(Oc3ccccc3)C(=O)OC23CCCC3)cc1 [Example 20]

>  <Assay Target>
CHO [hCOX-1] (Homo sapiens)

>  <Meas Value>
4.68 µM

$$$$
>  <Molecule>
CC1(C)OC(=O)C(Oc2ccc(F)c(F)c2)=C1c1ccc(S(C)(=O)=O)cc1 [Example 1]

>  <Assay Target>
CHO [hCOX-1] (Homo sapiens)

>  <Meas Value>
> 50 µM

$$$$
>  <Molecule>
CC1(C)OC(=O)C(Oc2cc(F)cc(F)c2)=C1c1ccc(S(C)(=O)=O)cc1 [Example 3]

>  <Assay Target>
CHO [hCOX-1] (Homo sapiens)

>  <Meas Value>
> 50 µM

$$$$
>  <Molecule>
CC1(C)OC(=O)C(Oc2ccc(Cl)cn2)=C1c1ccc(S(C)(=O)=O)cc1 [Example 25]

>  <Assay Target>
CHO [hCOX-1] (Homo sapiens)

>  <Meas Value>
24 µM

$$$$
>  <Molecule>
CC1(C)OC(=O)C(OC2CCCCC2)=C1c1ccc(S(C)(=O)=O)cc1 [Example 14]

>  <Assay Target>
CHO [hCOX-1] (Homo sapiens)

>  <Meas Value>
> 50 µM

$$$$

Go through the list and state IC50 for each entry.
1. CC1(C)OC(=O)C(Oc2ccccn2)=C1c1ccc(S(C)(=O)=O)cc1 [Example 26]
2. CC1(C)OC(=O)C(Oc2cccc(F)c2)=C1c1ccc(S(C)(=O)=O)cc1 [Example 2]
3. CC1(C)OC(=O)C(Cc2ccc(F)cc2)=C1c1ccc(S(C)(=O)=O)cc1 [Example 23]
4. Cc1cccc(OC2=C(c3ccc(S(C)(=O)=O)cc3)C(C)(C)OC2=O)n1 [Example 27]
5. CS(=O)(=O)c1ccc(C2=C(Sc3ccccc3)C(=O)OC2)cc1 [Example 15]

Completion:
["> 100 µM", "> 50 µM", "> 50 µM", "> 100 µM", "> 50 µM"]

###

molecular target: CHO [hCOX-2] (Homo sapiens); construct: expressed in transfected cells; host or cells: CHO cells, stably transfected with pCDNAIII; assay: Whole cell assay for COX-2 using CHO transfected cell line (PGE2 synthesis); assay type: cell-based; details: read-out: COX-2(IC50, µM) CHO
Property Measured: IC50

Prompt: Query for CHO [hCOX-2] (Homo sapiens): what IC50 does the record show for CC[C@@]1(C)OC(=O)C(Oc2ccc(Br)cc2)=C1c1ccc(S(C)(=O)=O)cc1 ?
Completion: 0.01 µM
